- Test system: WT EGFR cell line A-431
- ASSAY EXPLANATION: Cell proliferation, WT EGFR A431 (CellTiter-Glo, 72 h);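 note: proliferation from a luminescent ATP viability signal, expressed as 100 × (treated minus time-zero plate) over (DMSO control minus time-zero plate), cells grown with 10% FBS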
- Type: cell-based
- RUN CONDITIONS: Homo sapiens, A-431, 72 h, A431, 72 h proliferation; read-out: EGFR WT A431 GI50
Below, each of the compounds is paired with its reported log10(GI50) value.
OBSERVABLE: log10(GI50) (log10 of the value in nM)

>  <COMPOUND>
C=CC(=O)Nc1cc(Nc2ncnc(Nc3cc(Cl)c(F)cc3C(C)(C)O)n2)c(OC)cc1N1CC[C@@H](N(C)C)C1 [Compound 33]

>  <OBSERVABLE>
log10(GI50)

>  <MEAS VALUE>
1.10

$$$$
>  <COMPOUND>
C=CC(=O)Nc1cc(Nc2ncnc(Nc3cc(F)c(F)cc3C(C)(C)O)n2)c(OC)cc1N1CC[C@@H](N(C)C)C1 [Compound 27]

>  <OBSERVABLE>
log10(GI50)

>  <MEAS VALUE>
1.42

$$$$
>  <COMPOUND>
C=CC(=O)Nc1cc(Nc2ncnc(Nc3cc(F)c(F)cc3C(C)(O)CC)n2)c(OC)cc1N1CC[C@H]2CN(C)C[C@H]21 (stereo partly drawn) [Compound 50]

>  <OBSERVABLE>
log10(GI50)

>  <MEAS VALUE>
2.44

$$$$
>  <COMPOUND>
C=CC(=O)Nc1cc(Nc2nccc(Nc3cc(Cl)c(Cl)cc3C(C)(C)O)n2)c(OC)cc1N1CC[C@@H](N(C)C)C1 [Compound 68]

>  <OBSERVABLE>
log10(GI50)

>  <MEAS VALUE>
1.32

$$$$
>  <COMPOUND>
C=CC(=O)Nc1cc(Nc2ncnc(Nc3cc(Cl)c(F)cc3C(C)(C)O)n2)c(OC)cc1N1CCOC[C@@H]1CN(C)C [Compound 40]

>  <OBSERVABLE>
log10(GI50)

>  <MEAS VALUE>
1.13

$$$$
>  <COMPOUND>
C=CC(=O)Nc1cc(Nc2ncnc(Nc3cc(F)c(F)cc3C(C)(C)O)n2)c(OC)cc1N1CC(CN(C)C)C1 [Compound 23]

>  <OBSERVABLE>
log10(GI50)

>  <MEAS VALUE>
1.89

$$$$

---

- TARGET SYSTEM: human EGFR exon 20 H773_V774insNPH (Homo sapiens, UniProt P00533, INS773NPH)
- Sequence (P00533 with tags, fused parts or gaps INS773NPH): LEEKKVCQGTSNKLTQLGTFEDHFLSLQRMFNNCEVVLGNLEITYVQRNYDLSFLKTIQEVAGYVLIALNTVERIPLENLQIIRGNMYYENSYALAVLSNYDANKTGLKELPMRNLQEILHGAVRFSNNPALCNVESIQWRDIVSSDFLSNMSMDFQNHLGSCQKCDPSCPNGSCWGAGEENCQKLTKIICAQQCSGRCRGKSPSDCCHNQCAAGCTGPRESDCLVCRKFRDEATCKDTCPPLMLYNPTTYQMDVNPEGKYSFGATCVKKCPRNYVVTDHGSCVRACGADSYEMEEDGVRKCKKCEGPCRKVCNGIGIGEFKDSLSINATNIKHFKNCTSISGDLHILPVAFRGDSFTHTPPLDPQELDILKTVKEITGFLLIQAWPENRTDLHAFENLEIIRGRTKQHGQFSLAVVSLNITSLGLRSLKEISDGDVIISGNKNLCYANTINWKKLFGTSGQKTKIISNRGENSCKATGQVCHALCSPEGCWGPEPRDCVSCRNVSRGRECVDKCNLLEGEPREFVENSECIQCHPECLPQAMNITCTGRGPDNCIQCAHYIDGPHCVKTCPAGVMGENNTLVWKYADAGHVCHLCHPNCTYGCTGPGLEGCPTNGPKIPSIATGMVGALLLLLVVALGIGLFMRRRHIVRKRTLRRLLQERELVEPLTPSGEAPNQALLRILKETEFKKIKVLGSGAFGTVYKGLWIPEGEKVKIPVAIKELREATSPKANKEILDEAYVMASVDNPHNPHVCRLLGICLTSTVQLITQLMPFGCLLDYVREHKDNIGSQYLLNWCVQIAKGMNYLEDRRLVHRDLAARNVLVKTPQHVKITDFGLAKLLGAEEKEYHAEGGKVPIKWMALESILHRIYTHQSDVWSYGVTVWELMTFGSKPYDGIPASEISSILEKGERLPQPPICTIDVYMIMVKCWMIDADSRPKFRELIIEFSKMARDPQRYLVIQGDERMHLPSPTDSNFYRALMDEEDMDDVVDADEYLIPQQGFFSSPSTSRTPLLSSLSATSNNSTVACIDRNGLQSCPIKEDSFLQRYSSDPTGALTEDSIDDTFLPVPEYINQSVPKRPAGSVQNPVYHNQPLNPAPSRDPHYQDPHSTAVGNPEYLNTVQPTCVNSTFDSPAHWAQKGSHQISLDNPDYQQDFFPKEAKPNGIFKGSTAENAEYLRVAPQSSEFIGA
- ASSAY EXPLANATION: EGFR Exon20 NPH insertion cellular phosphorylation inhibition (MSD pEGFR Y1068/total EGFR);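 note: IL3-independent Ba/F3 cells with constitutively phosphorylated EGFR, compound exposure at 37 °C under 5% CO2, electrochemiluminescent MSD measurement of the p-EGFR to total EGFR ratio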
- RUN CONDITIONS: Ba/F3 EGFR NPH ins cells, 4 h compound, p-EGFR(Y1068)/total EGFR
pIC50: −log10 of the molar value.
Below, each of the molecules is paired with its reported pIC50 value.
OBSERVABLE: pIC50

>  <MOLECULE>
C=CC(=O)Nc1cc(Nc2ncnc(Nc3cc(F)c(F)cc3C(C)(C)O)n2)c(OC)cc1N(C)CCN1CCCCC1 [Compound 24]

>  <MEAS VALUE>
7.19

$$$$
>  <MOLECULE>
C=CC(=O)Nc1cc(Nc2ncnc(Nc3cc(F)c(F)cc3C(C)(C)O)n2)c(OC)cc1N1CC[C@@H]2CN(C)C[C@@H]21 [Compound 17]

>  <MEAS VALUE>
7.89

$$$$
>  <MOLECULE>
C=CC(=O)Nc1cc(Nc2ncnc(Nc3cc(F)c(F)cc3C(C)(C)O)n2)c(OC)cc1N1CC[C@H]2CN(C)C[C@H]21 [Compound 25]

>  <MEAS VALUE>
6.42

$$$$

---

- ASSAY EXPLANATION: In vitro human hepatocytes clearance assay
- RUN CONDITIONS: both, human, cryopreserved human hepatocytes (suspension), human hepatocytes Clint (µL/min/10^6cells), mixed gender human hepatocytes, incubation up to 100 min
Where a name gives a salt, the structure may show the parent alone.
Below, each of the compounds is paired with its reported hepatocyte CLint at 1 µM value.
OBSERVABLE: hepatocyte CLint at 1 µM (µL/min/1e6 cells)

>  <COMPOUND>
C=CC(=O)Nc1cc(Nc2ncnc(Nc3cc(F)c(Cl)cc3C(C)(C)O)n2)c(OC)cc1N1CC[C@@H](N(C)C)C1

>  <OBSERVABLE>
hepatocyte CLint at 1 µM

>  <MEAS VALUE>
4.02

$$$$
>  <COMPOUND>
C=CC(=O)Nc1cc(Nc2nccc(Nc3cc(Cl)c(F)cc3C(C)(C)O)n2)c(OC)cc1N1C[C@@H]2CN(C)C[C@@H]21

>  <OBSERVABLE>
hepatocyte CLint at 1 µM

>  <MEAS VALUE>
1.42

$$$$
>  <COMPOUND>
C=CC(=O)Nc1cc(Nc2nccc(Nc3cc(Cl)c(F)cc3C(C)(C)O)n2)c(OC)cc1N(C)CCN(C)C

>  <OBSERVABLE>
hepatocyte CLint at 1 µM

>  <MEAS VALUE>
10.3

$$$$
>  <COMPOUND>
C=CC(=O)Nc1cc(Nc2nccc(Nc3cc(Cl)c(F)cc3C(C)(C)O)n2)c(OC)cc1N1C[C@@H]2CN(C)[C@@H]2C1 [Compound 97, formic acid salt]

>  <OBSERVABLE>
hepatocyte CLint at 1 µM

>  <MEAS VALUE>
4.25

$$$$
>  <COMPOUND>
C=CC(=O)Nc1cc(Nc2nccc(Nc3cc(Cl)c(F)cc3C(C)(C)O)n2)c(OC)cc1N1CCC[C@@H]1CN1CCC1 [Compound 98, formic acid salt]

>  <OBSERVABLE>
hepatocyte CLint at 1 µM

>  <MEAS VALUE>
7.6

$$$$
>  <COMPOUND>
C=CC(=O)Nc1cc(Nc2nccc(Nc3cc(Cl)c(F)cc3C(C)(C)O)n2)c(OC)cc1N1CC[C@@H](NC)C1 [Compound 80, TFA salt]

>  <OBSERVABLE>
hepatocyte CLint at 1 µM

>  <MEAS VALUE>
2.81

$$$$

---

- ASSAY EXPLANATION: In vitro human hepatocytes clearance assay
- RUN CONDITIONS: both, human, cryopreserved human hepatocytes (suspension), human hepatocytes Clint (µL/min/10^6cells), mixed gender human hepatocytes, incubation up to 100 min
Below, each of the molecules is paired with its reported hepatocyte CLint at 1 µM value.

>  <MOLECULE>
C=CC(=O)Nc1cc(Nc2nccc(Nc3cc(Cl)c(F)cc3C(C)(C)O)n2)c(OC)cc1N1CC[C@@H](CN(C)C)C1

>  <UOM>
µL/min/1e6 cells

>  <hepatocyte CLint at 1 µM>
4.32

$$$$
>  <MOLECULE>
C=CC(=O)Nc1cc(Nc2nccc(Nc3cc(Cl)c(F)cc3C(C)(O)CC)n2)c(OC)cc1N1CC[C@@H](N(C)C)C1 (single isomer, unassigned)

>  <UOM>
µL/min/1e6 cells

>  <hepatocyte CLint at 1 µM>
4.01

$$$$
>  <MOLECULE>
C=CC(=O)Nc1cc(Nc2ncnc(Nc3cc(Cl)c(F)cc3C(C)(O)CC)n2)c(OC)cc1N1CC[C@@H](N(C)C)C1 (single isomer, unassigned)

>  <UOM>
µL/min/1e6 cells

>  <hepatocyte CLint at 1 µM>
4.12

$$$$

---

- TARGET SYSTEM: human EGFR exon 20 V769_D770insASV (Homo sapiens, UniProt P00533, INS769ASV)
- Sequence (P00533 with tags, fused parts or gaps INS769ASV): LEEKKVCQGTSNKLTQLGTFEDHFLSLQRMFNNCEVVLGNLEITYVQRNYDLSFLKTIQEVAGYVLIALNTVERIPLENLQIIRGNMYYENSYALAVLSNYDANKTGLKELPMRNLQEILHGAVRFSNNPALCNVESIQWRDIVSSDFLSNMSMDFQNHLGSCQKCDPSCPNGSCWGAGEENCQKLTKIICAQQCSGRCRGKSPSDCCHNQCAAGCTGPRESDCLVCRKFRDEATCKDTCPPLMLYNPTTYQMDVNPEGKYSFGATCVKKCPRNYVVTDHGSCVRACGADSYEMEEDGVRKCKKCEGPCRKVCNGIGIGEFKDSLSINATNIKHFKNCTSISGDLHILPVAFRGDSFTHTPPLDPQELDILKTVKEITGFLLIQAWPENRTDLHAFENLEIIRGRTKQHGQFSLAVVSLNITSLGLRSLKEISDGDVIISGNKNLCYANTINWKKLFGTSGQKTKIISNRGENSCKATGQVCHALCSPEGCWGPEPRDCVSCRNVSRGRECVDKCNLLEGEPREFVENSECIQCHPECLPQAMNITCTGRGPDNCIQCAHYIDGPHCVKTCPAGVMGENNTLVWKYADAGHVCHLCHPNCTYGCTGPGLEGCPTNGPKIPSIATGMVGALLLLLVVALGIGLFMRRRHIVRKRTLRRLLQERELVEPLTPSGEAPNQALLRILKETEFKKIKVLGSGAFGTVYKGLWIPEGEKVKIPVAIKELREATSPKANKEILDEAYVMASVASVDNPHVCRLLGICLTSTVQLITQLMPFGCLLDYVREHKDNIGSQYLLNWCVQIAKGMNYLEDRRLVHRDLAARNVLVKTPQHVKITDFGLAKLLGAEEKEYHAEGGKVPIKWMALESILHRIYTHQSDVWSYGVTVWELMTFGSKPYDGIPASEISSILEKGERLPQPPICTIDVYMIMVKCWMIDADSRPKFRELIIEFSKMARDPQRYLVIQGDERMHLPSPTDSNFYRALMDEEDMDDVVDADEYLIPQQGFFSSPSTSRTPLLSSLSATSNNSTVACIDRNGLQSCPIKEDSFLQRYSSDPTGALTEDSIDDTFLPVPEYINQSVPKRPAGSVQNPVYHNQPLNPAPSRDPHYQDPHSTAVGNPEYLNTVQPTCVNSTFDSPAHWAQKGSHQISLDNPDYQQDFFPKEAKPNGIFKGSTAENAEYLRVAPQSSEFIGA
- ASSAY EXPLANATION: EGFR Exon20 ASV insertion cellular phosphorylation inhibition (MSD pEGFR Y1068/total EGFR);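 note: electrochemiluminescent readout on an MSD SECTOR Imager, IL3-independent transduced cells in medium with 1% FBS, compound concentration series at 37 °C and 5% CO2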
- RUN CONDITIONS: Ba/F3 EGFR ASV ins cells, 4 h compound, p-EGFR(Y1068)/total EGFR
Please assign condition not met whenever IC50 is at or above 80 nM, and condition met whenever it is below.

>  <COMPOUND>
C=CC(=O)Nc1cc(Nc2ncnc(Nc3cc(Cl)c(F)cc3C(C)(C)O)n2)c(OC)cc1N1CC(CN(C)C)C1

>  <CLASSIFICATION>
condition met

$$$$
>  <COMPOUND>
C=CC(=O)Nc1cc(Nc2ncnc(Nc3cc(F)c(F)cc3C(C)(C)O)n2)c(OC)cc1N(C)CCN1CCCCC1

>  <CLASSIFICATION>
condition met

$$$$
>  <COMPOUND>
C=CC(=O)Nc1cc(Nc2ncnc(Nc3cc(Cl)c(F)cc3C(C)(C)O)n2)c(OC)cc1N(C)CCN(C)C

>  <CLASSIFICATION>
condition met

$$$$
>  <COMPOUND>
C=CC(=O)Nc1cc(Nc2ncnc(Nc3cc(F)c(F)cc3C(C)(O)CC)n2)c(OC)cc1N1CCC[C@H]1CN(C)C (stereo partly shown)

>  <CLASSIFICATION>
condition met

$$$$
>  <COMPOUND>
C=CC(=O)Nc1cc(Nc2ncnc(Nc3cnc(F)cc3C(C)(C)O)n2)c(OC)cc1N(C)CCN(C)C

>  <CLASSIFICATION>
condition not met

$$$$
>  <COMPOUND>
C=CC(=O)Nc1cc(Nc2ncnc(Nc3cc(F)c(F)cc3C(C)(C)O)n2)c(OC)cc1N1CC[C@H]2CN(C)C[C@H]21

>  <CLASSIFICATION>
condition not met

$$$$
>  <COMPOUND>
C=CC(=O)Nc1cc(Nc2ncc(C#N)c(Nc3cc(Cl)c(F)cc3C(C)(C)O)n2)c(OC)cc1N1CC[C@@H](N(C)C)C1

>  <CLASSIFICATION>
condition met

$$$$
